test system: ACHN; assay: Cytotoxicity against human ACHN cells at 10 uM after 48 hrs by SRB assay; format: functional; settings: read-out: GI
quantity_name: inhibition of growth at 10 µM

[[record]]
smiles_string = "C=CCn1c(C)nc2cc(Nc3nc(N4CCOCC4)nc4ccccc34)ccc21"
quantity_name = "inhibition of growth at 10 µM"
result = "< 10%"

[[record]]
smiles_string = "C=CCn1c(C)nc2cc(Nc3nc(N4CCCC4)nc4ccccc34)ccc21"
quantity_name = "inhibition of growth at 10 µM"
result = "< 10%"

[[record]]
smiles_string = "O=c1[nH]cc(F)c(=O)[nH]1"
quantity_name = "inhibition of growth at 10 µM"
result = "39.3%"

[[record]]
smiles_string = "C=CCn1c(C)nc2ccc(Nc3nc(Cl)nc4ccccc34)cc21"
quantity_name = "inhibition of growth at 10 µM"
result = "< 10%"

[[record]]
smiles_string = "C=CCn1c(C)nc2cc(Nc3nc(Cl)nc4ccccc34)ccc21"
quantity_name = "inhibition of growth at 10 µM"
result = "< 10%"

[[record]]
smiles_string = "C=CCn1c(C)nc2ccc(Nc3nc(N4CCOCC4)nc4ccccc34)cc21"
quantity_name = "inhibition of growth at 10 µM"
result = "< 10%"

[[record]]
smiles_string = "C=CCn1c(C)nc2ccc(Nc3nc(N4CCCC4)nc4ccccc34)cc21"
quantity_name = "inhibition of growth at 10 µM"
result = "< 10%"


Now examine the next entry.
The recorded inhibition of growth at 10 µM for entry C=CCn1c(C)nc2ccc(Nc3nc(N4CCN(C)CC4)nc4ccccc34)cc21 equals < 10%

###

tested on: HOP-62; test: Cytotoxicity against human HOP62 cells at 10 uM after 48 hrs by SRB assay; type: functional; details: HOP-62, 48 h, read-out: GI
quantity_name: inhibition of growth at 10 µM

The recorded inhibition of growth at 10 µM for entry C=CCn1c(C)nc2ccc(Nc3nc(Cl)nc4ccccc34)cc21 equals < 10%

The recorded inhibition of growth at 10 µM for entry C=CCn1c(C)nc2ccc(Nc3nc(N4CCCC4)nc4ccccc34)cc21 equals < 10%

###

test system: MDA-MB-468; assay: Cytotoxicity against human MDA-MB-468 cells at 10 uM after 48 hrs by SRB assay; format: functional; conditions: MDA-MB-468, 48 h, read-out: GI
In this section we review reported inhibition of growth at 10 µM values for a set of molecules.
Record the value in %, omitting the unit from your answer.

[[record]]
smiles_string = "C=CCn1c(C)nc2cc(Nc3nc(Cl)nc4ccccc34)ccc21"
quantitative_result = 19.1

[[record]]
smiles_string = "C=CCn1c(C)nc2cc(Nc3nc(N4CCCC4)nc4ccccc34)ccc21"
quantitative_result = 13.3


Now examine the next entry.
The recorded inhibition of growth at 10 µM for entry C=CCn1c(C)nc2ccc(Nc3nc(Cl)nc4ccccc34)cc21 equals 16.3

###

tested on: Malme-3M; assay: Cytotoxicity against human MALME-3M cells at 10 uM after 48 hrs by SRB assay; assay type: functional; settings: read-out: GI
In this section we review reported inhibition of growth at 10 µM values for a set of compounds.

Guide cases for inhibition of growth at 10 µM, answers given:
[[record]]
smiles_string = "C=CCn1c(C)nc2ccc(Nc3nc(N4CCN(C)CC4)nc4ccccc34)cc21"
assay_system = "Malme-3M"
quantity_name = "inhibition of growth at 10 µM"
result = "< 10%"

[[record]]
smiles_string = "O=c1[nH]cc(F)c(=O)[nH]1"
assay_system = "Malme-3M"
quantity_name = "inhibition of growth at 10 µM"
result = "58.2%"

[[record]]
smiles_string = "C=CCn1c(C)nc2ccc(Nc3nc(Cl)nc4ccccc34)cc21"
assay_system = "Malme-3M"
quantity_name = "inhibition of growth at 10 µM"
result = "< 10%"

[[record]]
smiles_string = "C=CCn1c(C)nc2ccc(Nc3nc(N4CCOCC4)nc4ccccc34)cc21"
assay_system = "Malme-3M"
quantity_name = "inhibition of growth at 10 µM"
result = "< 10%"

[[record]]
smiles_string = "C=CCn1c(C)nc2ccc(Nc3nc(N4CCCC4)nc4ccccc34)cc21"
assay_system = "Malme-3M"
quantity_name = "inhibition of growth at 10 µM"
result = "< 10%"


Now examine the next entry.
The recorded inhibition of growth at 10 µM for entry C=CCn1c(C)nc2cc(Nc3nc(N4CCCC4)nc4ccccc34)ccc21 equals < 10%

###

system: HCT-15; assay: Cytotoxicity against human HCT15 cells at 10 uM after 48 hrs by SRB assay; assay type: functional; settings: HCT-15, 48 h, read-out: GI
quantity_name: inhibition of growth at 10 µM

Item C=CCn1c(C)nc2ccc(Nc3nc(N4CCCC4)nc4ccccc34)cc21 was tested on HCT-15; the reported inhibition of growth at 10 µM is 20.6%

Item C=CCn1c(C)nc2cc(Nc3nc(N4CCCC4)nc4ccccc34)ccc21 was tested on HCT-15; the reported inhibition of growth at 10 µM is < 10%

Item O=c1[nH]cc(F)c(=O)[nH]1 was tested on HCT-15; the reported inhibition of growth at 10 µM is 26.5%

Item C=CCn1c(C)nc2ccc(Nc3nc(N4CCOCC4)nc4ccccc34)cc21 was tested on HCT-15; the reported inhibition of growth at 10 µM is < 10%

Item C=CCn1c(C)nc2cc(Nc3nc(N4CCOCC4)nc4ccccc34)ccc21 was tested on HCT-15; the reported inhibition of growth at 10 µM is < 10%

Item C=CCn1c(C)nc2cc(Nc3nc(Cl)nc4ccccc34)ccc21 was tested on HCT-15; the reported inhibition of growth at 10 µM is < 10%

Item C=CCn1c(C)nc2ccc(Nc3nc(N4CCN(C)CC4)nc4ccccc34)cc21 was tested on HCT-15; the reported inhibition of growth at 10 µM is 10.1%

Item C=CCn1c(C)nc2ccc(Nc3nc(Cl)nc4ccccc34)cc21 was tested on HCT-15; the reported inhibition of growth at 10 µM is < 10%

###

test system: A549; assay: Cytotoxicity against human A549 cells at 10 uM after 48 hrs by SRB assay; format: functional; conditions: A549, 48 h, read-out: GI
In this section we review reported inhibition of growth at 10 µM values for a set of compounds.

Guide cases for inhibition of growth at 10 µM, answers given:
[[record]]
compound = "C=CCn1c(C)nc2ccc(Nc3nc(N4CCN(C)CC4)nc4ccccc34)cc21"
quantity_name = "inhibition of growth at 10 µM"
result = "< 10%"

[[record]]
compound = "C=CCn1c(C)nc2ccc(Nc3nc(N4CCCC4)nc4ccccc34)cc21"
quantity_name = "inhibition of growth at 10 µM"
result = "25.4%"

[[record]]
compound = "C=CCn1c(C)nc2cc(Nc3nc(Cl)nc4ccccc34)ccc21"
quantity_name = "inhibition of growth at 10 µM"
result = "< 10%"

[[record]]
compound = "C=CCn1c(C)nc2cc(Nc3nc(N4CCCC4)nc4ccccc34)ccc21"
quantity_name = "inhibition of growth at 10 µM"
result = "10.1%"

[[record]]
compound = "C=CCn1c(C)nc2ccc(Nc3nc(Cl)nc4ccccc34)cc21"
quantity_name = "inhibition of growth at 10 µM"
result = "18.5%"


The recorded inhibition of growth at 10 µM for entry C=CCn1c(C)nc2cc(Nc3nc(N4CCOCC4)nc4ccccc34)ccc21 equals < 10%

The recorded inhibition of growth at 10 µM for entry O=c1[nH]cc(F)c(=O)[nH]1 [FLUOROURACIL] equals 34.2%

The recorded inhibition of growth at 10 µM for entry C=CCn1c(C)nc2ccc(Nc3nc(N4CCOCC4)nc4ccccc34)cc21 equals 11.8%

###

test system: Hs-578T; experiment: Cytotoxicity against human Hs578T cells at 10 uM after 48 hrs by SRB assay; format: functional; details: read-out: GI
In this section we review reported inhibition of growth at 10 µM values for a set of compounds.

Guide cases for inhibition of growth at 10 µM, answers given:
[[record]]
smiles_string = "C=CCn1c(C)nc2cc(Nc3nc(Cl)nc4ccccc34)ccc21"
quantity_name = "inhibition of growth at 10 µM"
result = "< 10%"

[[record]]
smiles_string = "C=CCn1c(C)nc2cc(Nc3nc(N4CCCC4)nc4ccccc34)ccc21"
quantity_name = "inhibition of growth at 10 µM"
result = "< 10%"

[[record]]
smiles_string = "C=CCn1c(C)nc2ccc(Nc3nc(N4CCCC4)nc4ccccc34)cc21"
quantity_name = "inhibition of growth at 10 µM"
result = "13.1%"

[[record]]
smiles_string = "C=CCn1c(C)nc2ccc(Nc3nc(N4CCN(C)CC4)nc4ccccc34)cc21"
quantity_name = "inhibition of growth at 10 µM"
result = "23.3%"

[[record]]
smiles_string = "C=CCn1c(C)nc2ccc(Nc3nc(N4CCOCC4)nc4ccccc34)cc21"
quantity_name = "inhibition of growth at 10 µM"
result = "< 10%"

[[record]]
smiles_string = "C=CCn1c(C)nc2ccc(Nc3nc(Cl)nc4ccccc34)cc21"
quantity_name = "inhibition of growth at 10 µM"
result = "< 10%"


Now examine the next entry.
The recorded inhibition of growth at 10 µM for entry C=CCn1c(C)nc2cc(Nc3nc(N4CCOCC4)nc4ccccc34)ccc21 equals < 10%
